The reader will find reported melting temperature values listed item by item below.
- Test system: HeLa Kyoto;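 note: HeLa Kyoto cells synchronized by double thymidine or nocodazole block, proteins quantified by TMT10plex mass spectrometry, three independent biological replicates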
- experimentDescription: melting temperature (median over replicates), in situ; higher = more thermally stable
- conditionDescription: cell cycle stage: G1/S
// note: answer is a bare numeric in °C

// known answers, use as guide
| residueSequence | measuredAttribute | unit | measuredNumber |
| --- | --- | --- | --- |
| MAAPLELSCWGGGWGLPSVHSESLVVMAYAKFSGAPLKVNVIDNTWRGSRGDVPILTTEDDMVSQPAKILNFLRKQKYNADYELSAKQGADTLAYIALLEEKLLPAVLHTFWVESDNYFTVTKPWFASQIPFPLSLILPGRMSKGALNRILLTRGQPPLYHLREVEAQIYRDAKECLNLLSNRLGTSQFFFGDTPSTLDAYVFGFLAPLYKVRFPKVQLQEHLKQLSNLCRFCDDILSSYFRLSLGGISPAGQETVDANLQKLTQLVNKESNLIEKMDDNLRQSPQLPPRKLPTLKLTPAEEENNSFQRLSP [MTX3] | melting temperature | °C | 51.4 |
| MAGRLLGKALAAVSLSLALASVTIRSSRCRGIQAFRNSFSSSWFHLNTNVMSGSNGSKENSHNKARTSPYPGSKVERSQVPNEKVGWLVEWQDYKPVEYTAVSVLAGPRWADPQISESNFSPKFNEKDGHVERKSKNGLYEIENGRPRNPAGRTGLVGRGLLGRWGPNHAADPIITRWKRDSSGNKIMHPVSGKHILQFVAIKRKDCGEWAIPGGMVDPGEKISATLKREFGEEALNSLQKTSAEKREIEEKLHKLFSQDHLVIYKGYVDDPRNTDNAWMETEAVNYHDETGEIMDNLMLEAGDDAGKVKWVDINDKLKLYASHSQFIKLVAEKRDAHWSEDSEADCHAL [NUDT9] | melting temperature | °C | 50.3 |
| MAELGLNEHHQNEVINYMRFARSKRGLRLKTVDSCFQDLKESRLVEDTFTIDEVSEVLNGLQAVVHSEVESELINTAYTNVLLLRQLFAQAEKWYLKLQTDISELENRELLEQVAEFEKAEITSSNKKPILDVTKPKLAPLNEGGTAELLNKEILRLQEENEKLKSRLKTIEIQATNALDEKSKLEKALQDLQLDQGNQKDFIKAQDLSNLENTVAALKSEFQKTLNDKTENQKSLEENLATAKHDLLRVQEQLHMAEKELEKKFQQTAAYRNMKEILTKKNDQIKDLRKRLAQYEPED [LZTFL1] | melting temperature | °C | 53.2 |

Query string: For the sequence MTSEVIEDEKQFYSKAKTYWKQIPPTVDGMLGGYGHISSIDINSSRKFLQRFLREGPNKTGTSCALDCGAGIGRITKRLLLPLFREVDMVDITEDFLVQAKTYLGEEGKRVRNYFCCGLQDFTPEPDSYDVIWIQWVIGHLTDQHLAEFLRRCKGSLRPNGIIVIKDNMAQEGVILDDVDSSVCRDLDVVRRIICSAGLSLLAEERQENLPDEIYHVYSFALR [NTMT1] , what melting temperature is on record?
Result string: 49.9

Query string: Now the sequence MFCEKAMELIRELHRAPEGQLPAFNEDGLRQVLEEMKALYEQNQSDVNEAKSGGRSDLIPTIKFRHCSLLRNRRCTVAYLYDRLLRIRALRWEYGSVLPNALRFHMAAEEMEWFNNYKRSLATYMRSLGGDEGLDITQDMKPPKSLYIEVRCLKDYGEFEVDDGTSVLLKKNSQHFLPRWKCEQLIRQGVLEHILS [GINS1]
Result string: 52.5
